- System: CCRF-CEM leukemia
- measurement.protocol: NCI tumour cell line growth inhibition, 48 h
Below, each entry is listed alongside its reported TGI.

Examples from the recorded data:
1) CC(C)Sc1nc(C#N)cc2c1CCCC2 : 55.8 µM
2) N#CC1(Cc2ccc(N)cc2)c2ccccc2C=CN1C(=O)c1ccccc1 (configuration not stated) : > 100 µM
3) CSc1ccc(C2=NN(C(C)=O)C(c3cc(C)cs3)C2)cc1 (configuration not stated) : > 100 µM
4) CCCCN1C(=O)CC2[C@@H]3CCc4cc(OC(C)=O)ccc4C3CC[C@]2(C)C1=O (some centres not stated) : > 10 µM

Input line: Check CCRF-CEM leukemia data and give TGI for `O=C(N/N=C/c1ccccc1O)c1cccc([N+](=O)[O-])c1` .
Output line: > 100 µM

Input line: Please look at `CC1=C(CCCNS(C)(=O)=O)C2=C(C)C3(CC3)[C@@](C)(O)C(=O)C2=C1` and tell me its recorded TGI on CCRF-CEM leukemia.
Output line: > 100 µM

Input line: # return TGI of `O=C(NNC(=S)Nc1ccc(Cl)cc1)c1cc(-c2ccccc2)nc2ccccc12` (system: CCRF-CEM leukemia)
Output line: 6.91 µM

Input line: Please indicate recorded TGI of `COCCOCOc1ccc(OCc2ccccc2)cc1` measured with CCRF-CEM leukemia.
Output line: > 100 µM

Input line: Recall the reported TGI of `Cc1nc2cccc([N+](=O)[O-])c2c(NCCCN(C)C)c1C` on CCRF-CEM leukemia and write it down.
Output line: > 75.2 µM

Input line: Give reported TGI for `O=C(O)Cn1ccc(=O)c2ccc([N+](=O)[O-])cc21` (CCRF-CEM leukemia)
Output line: > 100 µM

Input line: Please respond with reported TGI (system CCRF-CEM leukemia) for O=C(O)CCCCC(CCSCc1ccccc1)SCc1ccccc1 (configuration not stated) .
Output line: > 100 µM

Input line: With CCRF-CEM leukemia as the test system, provide measured TGI for this compound: OCC1CCCCCCCCCCC12SCCCS2 (configuration not stated)
Output line: > 100 µM

Input line: Enter TGI (test system CCRF-CEM leukemia) for COc1ccc(C2=NN(C(=O)c3cc(OC)c(OC)c(OC)c3)C(c3ccc(C#N)cc3)C2)cc1OC (configuration not stated)
Output line: > 100 µM

Input line: Report its TGI with CCRF-CEM leukemia as the test system: O=NN(Cc1ccc(Cl)cc1)C(C(=O)O)c1ccccc1 (configuration not stated)
Output line: > 100 µM

----------
Reported TGI values for the following compounds.
- Test system: SK-OV-3 ovarian
- measurement.protocol: NCI tumour cell line growth inhibition, 48 h
Dear colleague, please return just the value in µM, with no unit written.

1. CCc1c(Oc2ccc(C(C)=O)cc2)c2ccccc2[nH]c1=O : 74.5
2. CC1=C(CCCNS(C)(=O)=O)C2=C(C)C3(CC3)[C@@](C)(O)C(=O)C2=C1 : 1.11

Turning now to a further compound:
Input line: Report TGI for `NCC1CCN(c2nc3ccccc3c3c2CCCC3)CC1`
Output line: 29.6

----------
- System: A498 renal
- measurement.protocol: NCI tumour cell line growth inhibition, 48 h
// reported TGI for each item listed
Give a bare numeral; the unit µM is implied.

1. CCOc1cc(NC(C)=O)ccc1C(=O)NNC(=O)c1ccccc1OC(C)=O : 73.8
2. CC(C)(C)c1ccc2c(c1)CNCCNCc1cc(C(C)(C)C)ccc1OCC1(CO2)COc2ccc(C(C)(C)C)cc2CNCCNCc2cc(C(C)(C)C)ccc2OC1 : 2.83

Input line: Under A498 renal, report TGI for `Cc1c(F)c(N)c2c(=O)cc(-c3ccc(NC(=O)CN(C)C)c(F)c3)oc2c1F`
Output line: 5.77

Input line: Give measured TGI for COc1ccc(C2CC(c3c(O)ccc4ccccc34)=NN2c2ccc([N+](=O)[O-])cc2[N+](=O)[O-])cc1OC (centres undefined) (A498 renal).
Output line: 35.9

Input line: Param request: TGI | system A498 renal | item `CN1CCN(Cc2ccc(NC(=O)c3cncc(C#Cc4cnc(N)c5ccc(C#N)cc45)c3)cc2C(F)(F)F)CC1`
Output line: 0.478

----------
- Test system: KM12 colon
- measurement.protocol: NCI tumour cell line growth inhibition, 48 h
assay.readout: TGI

Solved cases below.
1. CC1=C2C(=O)NN=C2CCN1c1ccc(Br)cc1 : > 100 µM
2. O=NN(Cc1ccc(Cl)cc1)C(C(=O)O)c1ccccc1 (stereo not given) : > 100 µM

Input line: Entry `CC(C)Sc1nc(C#N)cc2c1CCCC2` needs its TGI filled in; supply it.
Output line: > 100 µM

Input line: # return recorded TGI for entry CCN1CC2=C(NC(=S)NC2c2ccc(Cl)cc2)/C(=C/c2ccc(Cl)cc2)C1 (stereo not given)
Output line: > 100 µM

Input line: Please indicate TGI recorded for CC(C)(C)C1=C(Br)C(Br)(C(C)(C)C)OP1(=O)c1ccccc1 (stereo not given)
Output line: > 100 µM

Input line: Provide TGI value for the following compound: CC1OC(O[C@H]2C[C@@H](O)[C@]3(CO)[C@H]4[C@H](O)C[C@]5(C)[C@@H](C6=CC(=O)OC6)CC[C@]5(O)[C@@H]4CC[C@]3(O)C2)C(O)C(O)C1O (stereo not given in full)
Output line: 32.3 µM

----------
TGI by entry:
- Tested on: OVCAR-3 ovarian
- measurement.protocol: NCI tumour cell line growth inhibition, 48 h

These solved cases illustrate the format of a correct answer.
1) Cc1nnc2n1N=C(c1cc(F)c(Cl)cc1Cl)/C(=C/c1ccc(Cl)cc1)S2 : 25.2 µM
2) C#CCCCCC#Cc1ccccc1C(=O)OC : > 100 µM
3) NCC1CCN(c2nc3ccccc3c3c2CCCC3)CC1 : 24.9 µM
4) O=C1OCc2c1cc1ccc(O)c(OC3OC(CO)C(O)C(O)C3O)c1c2-c1ccc2c(c1)OCO2 (stereo not drawn) : > 100 µM

Input line: Provide only the value of recorded TGI for `Cc1ccc(-c2c3c([nH]c(=O)c2C#N)-c2cc(F)ccc2OC3)cc1`
Output line: 81.9 µM

Input line: Report TGI, nothing else, for this compound: COc1cc2c(cc1OC)C1=Cc3cc(OC)c(OC)cc3C(C)N1C=C2 (stereo not drawn)
Output line: > 100 µM

Input line: Assign TGI to the following record: `COc1cccc(-c2cc(=O)c3ccccc3o2)c1N`
Output line: > 100 µM

Input line: State its TGI for this compound: `N.N.N.O=[N+]([O-])[O-].O=[N+]([O-])[O-].O=[N+]([O-])[O-].O=[N+]([O-])[O-].[Co+3]`
Output line: > 100 µM

----------
- Tested on: OVCAR-8 ovarian
- measurement.protocol: NCI tumour cell line growth inhibition, 48 h
The entries below are paired with their reported TGI.

1) CCCCCCCCCCCCCCCCCCNc1ccn(C2OC(COP(=O)(O)OCC3OC(n4ccc(NC(=O)CCCCCCCCCCCCCCCCC)nc4=O)C(OC(C)=O)C3OC(C)=O)C(OC(C)=O)C2OC(C)=O)c(=O)n1 (configuration not stated) : > 100 µM
2) c1ccc(C2C3=C(Nc4ncnn42)c2ccccc2C3)cc1 (configuration not stated) : > 100 µM
3) Cc1nc2cccc([N+](=O)[O-])c2c(NCCCN(C)C)c1C : > 54.7 µM
4) O=C(NCCOCCOCCNc1cccc2c1C(=O)N(C1CCCNC1=O)C2=O)c1cc2c(o1)C(=O)c1ccccc1C2=O (configuration not stated) : 10.6 µM
5) CN1C(=O)N(c2ccccc2)C2(CCN(CC3COc4ccccc4O3)CC2)C1=O (configuration not stated) : > 100 µM

Input line: Provide TGI value for the following compound: CC(CN1c2ccccc2Sc2ccccc21)N(C)C (configuration not stated)
Output line: 29.8 µM

Input line: Identify measured TGI corresponding to `CCc1c(Oc2ccc(C(C)=O)cc2)c2ccccc2[nH]c1=O`
Output line: 53.4 µM

Input line: Could you please provide reported TGI for `O=C1CNCCCN2CCN(CCCNCC(=O)Nc3ccc(cc3)S(=O)(=O)c3ccc(cc3)NC(=O)CNCCCN3CCN(CCCNCC(=O)Nc4ccc(cc4)S(=O)(=O)c4ccc(cc4)N1)CC3)CC2` ? Thanks!
Output line: > 56.9 µM

Input line: Read the entry `Cc1nc2c(sc(=S)n2-c2ccccc2)c2nc3ncccc3n12` and write its reported TGI.
Output line: > 100 µM

Input line: Report TGI for `Cn1cc2ccccc2c1-c1nc(N)nc(F)n1`
Output line: > 100 µM

Input line: Name the recorded TGI of the compound listed here: `N#C/C(=C/c1ccsc1)C(=O)c1ccccc1`
Output line: > 100 µM

Input line: Give TGI for O=C1OCc2c1cc1ccc(O)c(OC3OC(CO)C(O)C(O)C3O)c1c2-c1ccc2c(c1)OCO2 (configuration not stated)
Output line: > 100 µM
